- Tested on: Fusarium graminearum
- Format: cell-based
Note to self: use satisfied only for Fusarium (%) readings below 4%; a reading exactly at 4% still gets not satisfied.

Some solved entries appear below for comparison.
>  <compound>
CC(=O)OO [Ac. Perac. 0.1%, peracetic acid]

>  <label>
not satisfied

$$$$
>  <compound>
[Na+].[OH-] [NaOH 0.25%, sodium hydroxide]

>  <label>
not satisfied

$$$$
>  <compound>
[Na+].[OH-] [NaOH 0.1%, sodium hydroxide]

>  <label>
not satisfied

$$$$
>  <compound>
CC(=O)OO [Ac. Perac. 2.0%, peracetic acid]

>  <label>
satisfied

$$$$
>  <compound>
OO [H2O2 3.0%, peroxide]

>  <label>
not satisfied

$$$$

q: Below 4% on Fusarium (%)? Entry CC(=O)OO [Ac. Perac. 0.25%, peracetic acid]
a: satisfied

q: Check if Fusarium (%) falls below 4% for [Na+].[OH-] [NaOH 0.5%, sodium hydroxide] .
a: not satisfied

q: Consider [Na+].[OH-] [NaOH 1.0%, sodium hydroxide] . Does its Fusarium (%) lie strictly below 4%?
a: satisfied

q: Answer whether the compound OO [H2O2 1.0%, peroxide] has Fusarium (%) strictly less than 4%
a: not satisfied

q: Quick check: Fusarium (%) of CCO [Alco. 1%, Alcohol] under 4%?
a: not satisfied

---

Measured % Fusarium values are reported for all entries that follow.
- Tested on: Fusarium graminearum
- Type: cell-based
- measurement-parameters: Table 6; means of 50 seeds plated in ¼ PDA medium
Write the answer as a number in %, unit excluded.

Field: example entries. Status: answers known.
>  <compound>
O=C([O-])O.[Na+] [NaHCO3 (0.25%), sodium bicarbonate]

>  <readout-unit>
%

>  <% Fusarium>
52

$$$$
>  <compound>
O=P([O-])([O-])O.[Na+].[Na+] [Na2HPO4 (0.5%), sodium phosphate dibasic]

>  <readout-unit>
%

>  <% Fusarium>
70

$$$$
>  <compound>
O=P([O-])([O-])O.[Na+].[Na+] [Na2HPO4 (0.25%), sodium phosphate dibasic]

>  <readout-unit>
%

>  <% Fusarium>
68

$$$$
>  <compound>
O=C([O-])O.[Na+] [NaHCO3 (0.5%), sodium bicarbonate]

>  <readout-unit>
%

>  <% Fusarium>
72

$$$$

Consider now this further compound.
q: Entry OCl has what % Fusarium?
a: 8

---

- measurement-parameters: Table 3; 8 hours steeping
Parameter: Total % of DON reduction. Scope: all listed entries.
Just the number please, in %, no unit attached.

Here are 2 molecules together with their reported answers.
>  <molecule>
CCOC(C)=O [Eth. Ac. 1%, Ethyl Acetate]

>  <attribute-measured>
Total % of DON reduction

>  <readout-unit>
%

>  <endpoint-result>
68

$$$$
>  <molecule>
[Cl-].[Na+] [Salt 1%, NaCl]

>  <attribute-measured>
Total % of DON reduction

>  <readout-unit>
%

>  <endpoint-result>
71

$$$$

q: Request the reported Total % of DON reduction associated with [Cl-].[Na+] [Salt 5%, NaCl]
a: 77

q: Given the molecule CCOC(C)=O [Eth. Ac. 10%, Ethyl Acetate] , what is its reported Total % of DON reduction?
a: 70

---

- System: barley seeds
- measurement-parameters: in vivo
Listed next: entries and their corresponding Germin. (%).
Write down the numeric answer in % and omit the unit.

# example entries with known answers
>  <molecule>
OCl [Hypochlorite 0.8%, hypochlorite]

>  <system-under-test>
barley seeds

>  <Germin. (%)>
80

$$$$
>  <molecule>
CC(=O)O [Ac. Ac. Glacial 0.5, glacial acetic acid]

>  <system-under-test>
barley seeds

>  <Germin. (%)>
8

$$$$
>  <molecule>
CC(=O)OO [Ac. Perac. 0.1%, peracetic acid]

>  <system-under-test>
barley seeds

>  <Germin. (%)>
94

$$$$

q: What Germin. (%) value was documented for this molecule, CCO [Alco. 10%, Alcohol] ?
a: 2

q: Data request, read-out Germin. (%), for CCOC(C)=O [Eth. Ac. 10%, Ethyl Acetate]
a: 0

q: Entry [Na+].[OH-] [NaOH 0.1%, sodium hydroxide] has what Germin. (%)?
a: 76

q: Recorded Germin. (%) for [Na+].[OH-] [NaOH 0.25%, sodium hydroxide] , please?
a: 96

q: Value lookup for Germin. (%); key = CC(=O)OO [Ac. Perac. 1.0%, peracetic acid]
a: 0

q: Entry under review: [Cl-].[Na+] [Salt 1%, NaCl] . Reported Germin. (%)?
a: 72

q: Look up Germin. (%): [Na+].[OH-] [NaOH 0.5%, sodium hydroxide]
a: 88

q: # Germin. (%) lookup, item OO [H2O2 3.0%, peroxide]
a: 92

---

- Tested on: barley seeds
- measurement-parameters: in vivo
Documented Germin. (%) across a set of molecules
Give the quantity in %, number only.

Solved cases below.
>  <molecule>
OO [H2O2 1.0%, peroxide]

>  <attribute-measured>
Germin. (%)

>  <endpoint-result>
94

$$$$
>  <molecule>
CC(=O)O [Ac. Ac. Glacial 1.0, glacial acetic acid]

>  <attribute-measured>
Germin. (%)

>  <endpoint-result>
0

$$$$
>  <molecule>
CCOC(C)=O [Eth. Ac. 1%, Ethyl Acetate]

>  <attribute-measured>
Germin. (%)

>  <endpoint-result>
6

$$$$
>  <molecule>
CCO [Alco. 1%, Alcohol]

>  <attribute-measured>
Germin. (%)

>  <endpoint-result>
72

$$$$
>  <molecule>
CC(=O)OO [Ac. Perac. 0.5%, peracetic acid]

>  <attribute-measured>
Germin. (%)

>  <endpoint-result>
28

$$$$

Attention now shifts to the item below.
q: Give its Germin. (%) value. Item: [Cl-].[Na+] [Salt 5%, NaCl]
a: 80

---

- Test system: Fusarium graminearum
- Assay type: cell-based
Reported Fusarium (%) is given for each of the following compounds.
Write it as a number; the unit % goes unstated.

>  <compound>
CC(=O)OO [Ac. Perac. 1.0%, peracetic acid]

>  <Fusarium (%)>
4

$$$$

Now for another entry.
q: Give recorded Fusarium (%) with Fusarium graminearum for the following compound: CC(=O)OO [Ac. Perac. 0.5%, peracetic acid]
a: 4

---

Recorded measurements of Germin. (%), one per entry
- System: barley seeds
- measurement-parameters: in vivo

>  <molecule>
[Na+].[OH-] [NaOH 1.0%, sodium hydroxide]

>  <Germin. (%)>
66%

$$$$
>  <molecule>
CC(=O)O [Ac. Ac. Glacial 0.25%, glacial acetic acid]

>  <Germin. (%)>
64%

$$$$
>  <molecule>
CC(=O)OO [Ac. Perac. 0.25%, peracetic acid]

>  <Germin. (%)>
76%

$$$$

Could you now consider this next molecule?
q: Using the record for CC(=O)OO [Ac. Perac. 2.0%, peracetic acid] , report its Germin. (%).
a: 0%
